test system: NCI-H23; assay: NCI tumour cell line growth inhibition, 48 h
The source made the active and inactive calls. Cut-off read from the data, not from the text of the source: active = GI50 up to about 1.1 µM and inactive = higher.
# GI50 per record follows

Worked set:
In [3]: df
Out[3]:
                                   compound              result
0               CC(C)C(=O)/C=C/c1ccc(Br)cc1  17.7 µM (inactive)
1  COc1ccc(N(C)C(=O)N(C)c2ccc([N+](=O)[O-])cc2)cc1  34.6 µM (inactive)
2     CN(C)C(=O)Oc1ccc(C(=S)Nc2ccccc2)cc1Br  22.9 µM (inactive)

Response field GI50 (NCI-H23) for item COc1ccc(C(=O)c2cc(OC)c(OC)c(OC)c2)cc1OC : 10.2 µM (inactive)

Record Nc1c([N+](=O)[O-])cc2c3c(cccc13)CC2 / NCI-H23, GI50 recorded as 55 µM (inactive)

I looked up N#Cc1nc(C2CCC(=O)O2)oc1N (stereo not drawn) and its GI50 for NCI-H23 was > 100 µM (inactive)

GI50 value, target or system NCI-H23, for O=C(N[C@@H]1C=CCC[C@@H]1c1ccccc1)OCc1ccccc1 : 22.8 µM (inactive)

The reported NCI-H23 GI50 of O=C1CCC2COc3ccc(O)c1c32 (stereo not drawn) is > 100 µM (inactive)

// returns GI50 for CC12CCC(C(Nc3cc(C(F)(F)F)cc(C(F)(F)F)c3)C1=O)C2(C)C (stereo not drawn) with NCI-H23; value = > 100 µM (inactive)

Summary line: CC(C)Oc1cccc(N2C(n3ccnc3)=Nc3ccncc3S2(=O)=O)c1 , NCI-H23, reported GI50 = 11.5 µM (inactive)

Log: NCI-H23, compound Cc1ccc(N2Cc3c(ccc4ccccc34)OP2(=O)Oc2ccc(Cl)c(C)c2)cc1 (stereo not drawn) , GI50 = > 100 µM (inactive)

NCI-H23 assay, compound CCN1CCC(O)(/C=C/c2ccc(C)cc2C)C(C(=O)/C=C/c2ccc(C)cc2C)C1 (stereo not drawn) , recorded GI50 = 2.77 µM (inactive)

Note to self: GI50 of CCCCCCCCCCCCCCCCOP(=O)(O)OP(=O)(O)OCC1OC(n2ccc(N)nc2=O)CC1O (stereo not drawn) with NCI-H23 was > 100 µM (inactive)

* * *

system: HCC 2998; test: NCI tumour cell line growth inhibition, 48 h
The source made the active and inactive calls. No stated cut-off is given here; in the data, active = GI50 up to about 1.1 µM and inactive = higher.
The reader will find reported GI50 values listed item by item below.

These solved cases illustrate the format of a correct answer.
COMPOUND	RESULT
Cc1cc(OP2(=O)NCc3ccncc3O2)ccc1Cl (centres undefined)	> 100 µM (inactive)
CC1=C(C)C2(C#N)C(=O)N3C(=NC(c4ccco4)NC3c3ccco3)C2(C#N)C(c2ccco2)N1 (centres undefined)	> 100 µM (inactive)
CC(C)(O)C1CC[C@]2(C)CC[C@]3(C)[C@H](CC[C@@H]4[C@@]5(C)CC[C@H](O)C(C)(C)[C@@H]5CC[C@]43C)[C@@H]12 (some centres undefined)	26.8 µM (inactive)

# evaluate next
Form: compound = C/C=C(\C)C(=O)OC1C(C)=C2C(C1OC(=O)CCCC)C(C)(OC(C)=O)CC(OC(=O)CCCC)C1(O)C2OC(=O)C1(C)O (centres undefined) ; GI50 = 3.24 µM (inactive)

* * *

tested on: HL-60; experiment: NCI tumour cell line growth inhibition, 48 h
Activity calls are given as the source filed them. Rule as the data show it: active = GI50 up to about 1.1 µM and inactive = higher.
Respond using exactly one of the listed classes: t for active, f for inactive

**Query** Given COC(=O)/C(=C/c1ccc(OC)cc1)C(C(=O)O)=C(C)C , state the outcome it received in this test.
**Result** f

**Query** For COC(=O)C(CC(=O)Nc1ccc(Cl)c(Cl)c1)C(=O)C(=O)NC1C2CC3CC(C2)CC1C3 (stereo unspecified) , what call appears in the results of this test?
**Result** f

* * *

tested on: OVCAR-4; assay: NCI tumour cell line growth inhibition, 48 h
Activity calls are given as the source filed them. No stated cut-off is given here; in the data, active = GI50 up to about 1.1 µM and inactive = higher.
ASSAY METRIC: GI50

>>> print(df.to_string())
                                   compound  assay_metric               result
0  COc1ccc([C@@]23CCC(=O)C[C@@H]2N(C)CC3)cc1OC          GI50  > 100 µM (inactive)
1            COC(=O)CSc1nnc(-c2ccccc2)[nH]1          GI50  > 100 µM (inactive)
2  O=C(OCc1ccccc1)N1N=NC2C3CC(OCc4ccccc4)(OCc4ccccc4)C(O3)C21 (stereo not drawn)          GI50   22.2 µM (inactive)

For this compound ( COc1ccc(/N=C\c2cc(OC)c(OC)c(OC)c2)cc1 ), measured GI50 is > 100 µM (inactive)

Notebook: COc1cc(/C=C(\NC(=O)c2ccccc2)c2nc3cncnc3[nH]2)cc(OC)c1OC , GI50 read as > 100 µM (inactive)

Consider COc1ccc(C(C2C(=O)N(C)C(=O)N(C)C2=O)C(F)(F)C(=O)N(C)C)cc1 (stereo not drawn) . Its measured GI50 is > 100 µM (inactive)

Form field GI50, entry C1CN2N3CCCC23C1 (stereo not drawn) : > 100 µM (inactive)

Just so you know, measured GI50 for COCC#C[C@@]1(O)CCCCC1CC(OC)OC (stereo partly drawn) came out at 50.4 µM (inactive)

Kindly note the recorded GI50 for C/C=C(\C)C(=O)OC1C(C)=C2C(C1OC(=O)CCCC)C(C)(OC(C)=O)CC(OC(=O)CCCC)C1(O)C2OC(=O)C1(C)O (stereo not drawn) , which is 1.86 µM (inactive)

Entry CNc1nc(N)cc(O)n1 ; GI50 = > 100 µM (inactive)

For C/C=C/C1=C(Cl)C(=O)[C@@H](Cl)[C@@]1(O)C(=O)OC [(+)-CRYPTOSPORIPSIN] the compound record lists GI50 as 2.09 µM (inactive)

The value of GI50 measured for the compound COc1cc2c(cc1O)CC1c3c(cc(O)c(OC)c3-2)CCN1C (stereo not drawn) turned out to be > 100 µM (inactive)

Noted for O=c1ccn(CC2(CO)CCC2)c(=O)[nH]1 : its GI50 reads > 100 µM (inactive)

* * *

test system: HOP-92; test: NCI tumour cell line growth inhibition, 48 h
Calls of active or inactive are those of the source. Rule as the data show it: active = GI50 up to about 1.1 µM and inactive = higher.
Can you answer with just one of these options? class 1 (active), class 0 (inactive)

>>> df
                                   molecule    label
0  CCOC(=O)C(NC(=O)N(C1=NCC(C)S1)C1CCCCC1)(OC)C(F)(F)F (stereo not drawn)  class 0
1  CCC1=C(C(C)=O)[C@@H]2CCCCC(C(=O)OC)[C@@H]2C1=O (stereo partly drawn)  class 0
2  Cc1ccc(N2Cc3c(ccc4ccccc34)OP2(=O)Oc2ccc(Cl)c(C)c2)cc1 (stereo not drawn)  class 0
3      COc1cc(CO)c(CC(=O)NCCCc2ccccc2)cc1OC  class 0
4  CC[C@H]1C=CCC[C@@]2(C[C@@H]3CC[C@@H]4[C@H](C(=O)OCCCCCCCCCCCCCCCC(=O)N(CCCN)CCCCN)[C@]5(CCC[C@@H](C)O5)NC(=[N+]34)N2)O1  class 1

**Query** Returns: the outcome recorded for O=[N+]([O-])c1cccc2c(/N=N/c3ccc4ccccc4c3O)c(O)cc(S(=O)(=O)O)c12 in this assay.
**Result** class 0

**Query** Call for entry COc1cc(NCCC(=O)O)c2ncccc2c1 :
**Result** class 0

**Query** # fetch the recorded call for COc1cc2c(cc1O)CC1c3c(cc(O)c(OC)c3-2)CCN1C (stereo not drawn) here
**Result** class 0

* * *

tested on: SF-295; test: NCI tumour cell line growth inhibition, 48 h
The source made the active and inactive calls. No stated cut-off is given here; in the data, active = GI50 up to about 1.1 µM and inactive = higher.
The reply should be one of these categories: active, inactive

**Query** Identify the outcome logged in this assay for the molecule shown: COc1cc(C2c3cc4c(cc3OC(NNC(N)=O)C2C)OCO4)cc(OC)c1OC (stereo not drawn)
**Result** active

**Query** Look up the recorded call for CNc1ccc2c(c1)[C@@]1(C)c3ccccc3[C@@H](C2)N1C in this test.
**Result** inactive

**Query** How was CN(C)CC(/C(Cc1ccccc1)=N\NC(=O)c1ccncc1)c1ccccc1 (stereo not drawn) classified in this test?
**Result** inactive

* * *

tested on: COLO 205; experiment: NCI tumour cell line growth inhibition, 48 h
Activity calls are given as the source filed them. No stated cut-off is given here; in the data, active = GI50 up to about 1.1 µM and inactive = higher.
Reported GI50 values for the following compounds.

Below are worked cases with known answers.
>>> df
                                   compound               result
0        C1CN2N3CCCC23C1 (stereo not given)  > 100 µM (inactive)
1  CCOC(=O)C(NC(=O)N(C1=NCC(C)S1)C1CCCCC1)(OC)C(F)(F)F (stereo not given)   23.2 µM (inactive)
2  CC(C)=CCN1c2ccc(Cl)cc2NC(=O)CC1C (stereo not given)   21.6 µM (inactive)

The compound O=C(NC1=C(Cl)C(=O)c2ccccc2C1=O)c1ccccc1 showed GI50 equal to 15.5 µM (inactive)

Reported GI50 ( Oc1cc2c3c(c1)CCCN3CCC2 ) = > 10 µM (inactive)

Looking up CCN(CC)c1ccc(/C=C2/C[N+](C)(C)C/C(=C/c3ccc(N(CC)CC)cc3)C2=O)cc1 , I see its GI50 listed as 1.29 µM (inactive)

Short answer for c1ccc2c(c1)nnn2CNc1ccc(N2CCOCC2)cc1 : GI50 was > 100 µM (inactive)

Form field GI50, entry Cn1c(-c2cccc([N+](=O)[O-])c2)[n+](C)c2ccccc21 : 17.7 µM (inactive)

Consider COC(=O)c1cc2c(s1)C(=O)c1ccccc1-2 . Its measured GI50 is > 100 µM (inactive)

// field: GI50; key: CC[C@@]12C=CC(=S)N(CCSc3ccccc3)[C@@H]1c1c(n(S(=O)(=O)c3ccc(OC)cc3)c3ccccc13)CC2 ; value = > 100 µM (inactive)

Each recorded value in this set is attributed to ChEMBL document CHEMBL1201862.
